Molecular target: UniProt P35462
Assay: Radioligand binding assay ([3H]-spiperone) on membranes of HEK293 EBNA cells expressing human D3 receptor
Details: read-out: D3 Ki; human receptor in HEK293 EBNA cells; 0.5 nM [3H]-spiperone
outcome measure: pKi
Interpret pKi as the negative base-10 log of the concentration measured in mol/L.

Illustrative cases are given below, each with its answer.
molecule=O=C(Cc1ccc2c(c1)OCO2)N[C@H]1CC[C@H](CCN2CCC(c3cccc4c3OCO4)CC2)CC1 test_value=8.40
molecule=COCC(=O)N[C@H]1CC[C@H](CCN2CCC(c3cccc4c3OCO4)CC2)CC1 test_value=7.75
molecule="O=C(N[C@H]1CC[C@H](CCN2CCC(c3cccc4c3OCO4)CC2)CC1)C1CCCO1 (stereo partly shown)" test_value=7.32

Now consider the entry below.
Form: Entry = CCOCCC(=O)N[C@H]1CC[C@H](CCN2CCC(c3cccc4c3OCO4)CC2)CC1 | System = UniProt P35462 | pKi = ____
8.14

---

Target: D2 receptor (Homo sapiens (Human))
Assay: Radioligand binding assay ([3H]-spiperone) on membranes of HEK293 EBNA cells expressing human D2 receptor
Conditions: human receptor in HEK293 EBNA cells; 0.7 nM [3H]-spiperone
outcome measure: pKi
# log scale: pKi equals minus log10 of the concentration in mol/L

Use these answered entries as a reference point.
molecule="COC(C)CC(=O)N[C@H]1CC[C@H](CCN2CCC(c3cccc4c3OCO4)CC2)CC1 (some centres unmarked) [Example 27]" test_value=6.40
molecule="O=C(CF)N[C@H]1CC[C@H](CCN2CCC(c3cccc4c3OCO4)CC2)CC1 [Example 76]" test_value=6.64
molecule="CCC(C)C(=O)N[C@H]1CC[C@H](CCN2CCC(c3cccc4c3OCO4)CC2)CC1 (some centres unmarked) [Example 51]" test_value=6.45
molecule="Cc1cc(CC(=O)N[C@H]2CC[C@H](CCN3CCC(c4cccc5c4OCO5)CC3)CC2)on1 [Example 19]" test_value=6.29
molecule="CN1CCN(CC(=O)N[C@H]2CC[C@H](CCN3CCC(c4cccc5c4OCO5)CC3)CC2)CC1 [Example 68]" test_value=6.98
molecule="O=C(CC1CCCCO1)N[C@H]1CC[C@H](CCN2CCC(c3cccc4c3OCO4)CC2)CC1 (some centres unmarked) [Example 22]" test_value=6.28

pKi for N#CCC(=O)N[C@H]1CC[C@H](CCN2CCC(c3cccc4c3OCO4)CC2)CC1 [Example 20] ?
6.69

One more molecule: O=C(N[C@H]1CC[C@H](CCN2CCC(c3cccc4c3OCO4)CC2)CC1)C(F)(F)F [Example 73]
6.46

---

Target: D2 receptor (Homo sapiens (Human))
Assay: Radioligand binding assay ([3H]-spiperone) on membranes of HEK293 EBNA cells expressing human D2 receptor
Details: human receptor in HEK293 EBNA cells; 0.7 nM [3H]-spiperone
outcome measure: pKi
API: returns pKi as number; meaning -log10 of concentration in mol/L.

compound_string=CN(C)C(=O)N[C@H]1CC[C@H](CCN2CCC(c3cccc4c3OCO4)CC2)CC1 test_value=7.28

# query: pKi of entry CO[C@H](C)C(=O)N[C@H]1CC[C@H](CCN2CCC(c3cccc4c3OCO4)CC2)CC1
6.30

Can you handle Cn1cnc(S(=O)(=O)N[C@H]2CC[C@H](CCN3CCC(c4cccc5c4OCO5)CC3)CC2)c1 next?
6.94

Likewise for Cc1ccc(C(=O)N[C@H]2CC[C@H](CCN3CCC(c4cccc5c4OCO5)CC3)CC2)cn1 ?
6.87

---

Target: 5-HT2A receptor (Homo sapiens (Human))
Assay: Radioligand binding assay ([3H]-ketanserin) on membranes of HEK293 EBNA cells expressing human 5-HT2A receptor
Conditions: read-out: 5HT2A Ki
// values below are reported pKi
Quick note: pKi values are minus log10 of concentrations in mol/L.

Sample answers from the record:
molecule="O=C(N[C@H]1CC[C@H](CCN2CCC(c3cccc4c3OCO4)CC2)CC1)[C@H](O)C(F)(F)F [Example 38]" test_value=7.68
molecule="O=C(N[C@H]1CC[C@H](CCN2CCC(c3cccc4c3OCO4)CC2)CC1)c1ccc2c(c1)OCCO2 [Example 58]" test_value=7.70
molecule="O=C(CC1COCCO1)N[C@H]1CC[C@H](CCN2CCC(c3cccc4c3OCO4)CC2)CC1 (stereo partly shown) [Example 3]" test_value=7.86

# evaluate next
Tell me the measured pKi of O=C(C[C@H]1CCCO1)N[C@H]1CC[C@H](CCN2CCC(c3cccc4c3OCO4)CC2)CC1 [Example 16] , please.
7.55

---

Target: D3 receptor (Homo sapiens (Human), UniProt P35462)
Sequence (P35462 whole entry): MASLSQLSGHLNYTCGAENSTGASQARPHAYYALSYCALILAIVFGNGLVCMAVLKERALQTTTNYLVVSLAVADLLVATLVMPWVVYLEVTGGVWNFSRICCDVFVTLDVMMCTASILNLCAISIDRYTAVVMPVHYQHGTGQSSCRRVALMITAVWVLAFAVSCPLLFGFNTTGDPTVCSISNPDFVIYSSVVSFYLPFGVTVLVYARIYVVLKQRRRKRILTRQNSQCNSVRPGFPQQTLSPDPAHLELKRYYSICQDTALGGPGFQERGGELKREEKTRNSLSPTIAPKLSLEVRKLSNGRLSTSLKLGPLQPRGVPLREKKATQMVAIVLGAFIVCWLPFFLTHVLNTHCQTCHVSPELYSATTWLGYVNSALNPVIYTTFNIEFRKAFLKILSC
Assay: Radioligand binding assay ([3H]-spiperone) on membranes of HEK293 EBNA cells expressing human D3 receptor
Settings: read-out: D3 Ki; human receptor in HEK293 EBNA cells; 0.5 nM [3H]-spiperone
outcome measure: Ki (nM)
State just the number; it will be interpreted in nM.

molecule="O=C(N[C@H]1CC[C@H](CCN2CCC(c3cccc4c3OCO4)CC2)CC1)N1CCc2ccccc21 [Example 74]" target_desc="D3 receptor (Homo sapiens (Human), UniProt P35462)" outcome_measure=Ki test_value=5.12
molecule="COC1(C(=O)N[C@H]2CC[C@H](CCN3CCC(c4cccc5c4OCO5)CC3)CC2)CCCCC1 [Example 67]" target_desc="D3 receptor (Homo sapiens (Human), UniProt P35462)" outcome_measure=Ki test_value=38.6
molecule="O=C(N[C@H]1CC[C@H](CCN2CCC(c3cccc4c3OCO4)CC2)CC1)c1ccccc1 [Example 9]" target_desc="D3 receptor (Homo sapiens (Human), UniProt P35462)" outcome_measure=Ki test_value=3.63

Then there is this molecule:
Item CC1(C(=O)N[C@H]2CC[C@H](CCN3CCC(c4cccc5c4OCO5)CC3)CC2)COC1 [Example 62] with D3 receptor (Homo sapiens (Human), UniProt P35462) - Ki?
39

---

Molecular target: D2 receptor (Homo sapiens (Human), UniProt P14416)
Sequence (P14416 whole entry): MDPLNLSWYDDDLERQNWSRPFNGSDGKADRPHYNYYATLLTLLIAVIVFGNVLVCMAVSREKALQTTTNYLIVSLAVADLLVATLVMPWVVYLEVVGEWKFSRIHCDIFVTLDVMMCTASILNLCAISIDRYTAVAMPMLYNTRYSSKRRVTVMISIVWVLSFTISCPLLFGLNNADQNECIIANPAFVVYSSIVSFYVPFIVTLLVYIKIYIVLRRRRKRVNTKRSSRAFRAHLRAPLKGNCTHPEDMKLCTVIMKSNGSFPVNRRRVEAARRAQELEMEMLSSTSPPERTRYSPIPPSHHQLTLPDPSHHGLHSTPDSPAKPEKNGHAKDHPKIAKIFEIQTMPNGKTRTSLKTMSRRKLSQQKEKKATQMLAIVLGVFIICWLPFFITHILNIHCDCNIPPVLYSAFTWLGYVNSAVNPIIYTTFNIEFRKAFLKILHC
Test: Radioligand binding assay ([3H]-spiperone) on membranes of HEK293 EBNA cells expressing human D2 receptor
Conditions: human receptor in HEK293 EBNA cells; 0.7 nM [3H]-spiperone
outcome measure: Ki (nM)
Field format: number, assumed nM, no unit text.

compound=O=S(=O)(N[C@H]1CC[C@H](CCN2CCC(c3cccc4c3OCO4)CC2)CC1)c1ccccc1 outcome_measure=Ki test_value=63.5
compound="O=C(N[C@H]1CC[C@H](CCN2CCC(c3cccc4c3OCO4)CC2)CC1)C1CCCO1 (stereo partly shown)" outcome_measure=Ki test_value=464
compound=O=C(N[C@H]1CC[C@H](CCN2CCC(c3cccc4c3OCO4)CC2)CC1)C1(O)CCCCC1 outcome_measure=Ki test_value=219
compound=O=C(N[C@H]1CC[C@H](CCN2CCC(c3cccc4c3OCO4)CC2)CC1)C1CCOCC1 outcome_measure=Ki test_value=184
compound=CCCC(=O)N[C@H]1CC[C@H](CCN2CCC(c3cccc4c3OCO4)CC2)CC1 outcome_measure=Ki test_value=277

Recorded Ki for O=C(N[C@H]1CC[C@H](CCN2CCC(c3cccc4c3OCO4)CC2)CC1)c1ccc(Cl)cc1 , please?
147

How about this compound: CCOCCC(=O)N[C@H]1CC[C@H](CCN2CCC(c3cccc4c3OCO4)CC2)CC1
393

Similarly, CS(=O)(=O)CC(=O)N[C@H]1CC[C@H](CCN2CCC(c3cccc4c3OCO4)CC2)CC1 ?
165

Here is the next compound: CS(=O)(=O)N[C@H]1CC[C@H](CCN2CCC(c3cccc4c3OCO4)CC2)CC1
414

Same question, O=C(N[C@H]1CC[C@H](CCN2CCC(c3cccc4c3OCO4)CC2)CC1)C1CCOC1 (stereo partly shown) this time
165

Another compound to look at: C[C@@H](O)C(=O)N[C@H]1CC[C@H](CCN2CCC(c3cccc4c3OCO4)CC2)CC1
268

Another: O=C(CC(F)(F)F)N[C@H]1CC[C@H](CCN2CCC(c3cccc4c3OCO4)CC2)CC1
209

---

Target: 5-HT2A receptor (Homo sapiens (Human))
Test: Radioligand binding assay ([3H]-ketanserin) on membranes of HEK293 EBNA cells expressing human 5-HT2A receptor
Details: read-out: 5HT2A Ki; human receptor in HEK293 EBNA cells; 1.1 nM [3H]-ketanserin
Checkbox rule: Ki lower than 20 nM = 1; Ki not lower than 20 nM = -1.

Worked cases, answers included:
compound="O=C(Nc1ccc(Cl)cc1)N[C@H]1CC[C@H](CCN2CCC(c3cccc4c3OCO4)CC2)CC1 [Example 77]" label=-1
compound="O=C(CC1(O)CCOCC1)N[C@H]1CC[C@H](CCN2CCC(c3cccc4c3OCO4)CC2)CC1 [Example 31]" label=-1
compound="O=C(N[C@H]1CC[C@H](CCN2CCC(c3cccc4c3OCO4)CC2)CC1)C1CC1(F)F (stereo partly shown) [Example 26]" label=-1
compound="O=C(CC(F)(F)F)N[C@H]1CC[C@H](CCN2CCC(c3cccc4c3OCO4)CC2)CC1 [Example 10]" label=1

Strictly below 20 nM in Ki? CCCC(=O)N[C@H]1CC[C@H](CCN2CCC(c3cccc4c3OCO4)CC2)CC1 [Example 25]
-1

Again, but for Cn1cnc(S(=O)(=O)N[C@H]2CC[C@H](CCN3CCC(c4cccc5c4OCO5)CC3)CC2)c1 [Example 72]
-1

Let us now turn to CO[C@@H]1CC[C@@H](CC(=O)N[C@H]2CC[C@H](CCN3CCC(c4cccc5c4OCO5)CC3)CC2)C1 [Example 30]
-1

Note, next up: CO[C@H](C)C(=O)N[C@H]1CC[C@H](CCN2CCC(c3cccc4c3OCO4)CC2)CC1 [Example 34]
1

CC1(C(=O)N[C@H]2CC[C@H](CCN3CCC(c4cccc5c4OCO5)CC3)CC2)COC1 [Example 62] , same question.
-1

Source: patent US8598357B2
